# Assay Overview: IANBD-channel fluorescence artefacts in buffer – biochemical, artefact control for cardiac RTF calcium sensitizer project, confirmation (AID 504382)
# Condition Label: IANBD fluorescence interference counterscreen, EC20 Ca2+, at 7.2 µM, scaled: EC20 calcium 0, EC100 calcium 100
Hit rate of the full screen: of about 2,500 compounds, about 460 (18%) were called active.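 The calls were made as follows: active = mean activation above a cutoff of low control average plus 3 SD from the earlier screen (cut at about 12% in these data); inactive = the rest.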 A selection follows.
Classes to choose from: yes (1) for active, no (0) for inactive

Look over these answered cases.
Molecule	Label
Cc1cc2nc3c(=O)n(C4CCCCC4)c(=O)[nH]c3nc2cc1N	no (0)
COc1ccccc1CNc1cc(C)ccc1C	yes (1)
N#C/C(=C\c1ccccn1)c1nc2ccccc2s1	no (0)

Prompt: What did the test return for Cc1ccc(C(=O)NCC(=O)OCC(=O)c2ccc(Cl)s2)cc1 ?
Response: yes (1)

Prompt: // outcome(item) with item = COc1ccc(C)cc1NC(=O)CC1COc2ccccc2O1 (centres undefined)
Response: no (0)

Prompt: Which outcome was entered for the molecule C=CCn1c(=O)[nH]c2nc3cc(N=CN(C)C)c(C)cc3nc2c1=O in this test?
Response: yes (1)

Prompt: Could you please tell me the result logged for Cc1ccc(C(=O)NCC(=O)OCC(=O)N(CC(C)C)c2c(N)n(Cc3ccccc3)c(=O)[nH]c2=O)cc1 in this assay?
Response: no (0)

Prompt: What was the test verdict on O=C(N/N=C/c1ccccc1OC(=O)c1ccc2c(c1)OCO2)c1cccc(F)c1 ?
Response: yes (1)
